- measuredTarget: SARS-CoV-2 RBD protein Avi-tag biotinylated (AcroBiosystems SPD-C82E9) (SARS-CoV-2, UniProt P0DTC2 330-518)
- testName: competition AlphaLISA; competitor human ACE2-mFc; further: test concentration or dose not given here
metric: % inhibition (%)
Numeric answer only, unit % assumed.

binder: VHH3.55 (VHH) VHH: QVQLQESGGGLVQAGGSLRLSCEVSGRTNDNYGVGWFRQVPGAERELVAAIRWSSISRYYKDSVKGRFTISRDNAKNTVYLQMDMLKPEDTAAYYCAADPAGWSEFGMEYWGKGTQVTVSS
recordedResult: 100

Name the recorded % inhibition for VHH3.144 (VHH) VHH: QVQLQESGGGLVQAGGSLRLSCVASGRAFGNGAVGWFRQAPGREREFVATVSWNGGGTYYAESVRGRFTISRDNAKSTVYLQMNSLKPEDTAVYYCASAGEGTVVSEWDYDYDYWGQGTQVTVSS .
100

Name the recorded % inhibition for VHH3.47 (VHH) VHH: QVQLQESGGGLVQAGDSLRLSCAASGHNFSTYAMAWFRQAPGTERELVAAISENDVMRYYADSVKGRFTISRDNAKNMAYLQMNSLKVEDTAVYLCAADPKGWSEWDMDYWGKGTQVTVSS .
100

Name the recorded % inhibition for VHH3.38 (VHH) VHH: QVQLQESGGGLVQAGGSLRLSCAASGGTFNNYAMAWFRQAPGQERELVAAMFWSGLPKYYADSVKGRFTISTDDAKNTVYLQMNGLKPEDTAVYYCAADSRGWSDVGGMDYWGKGTQVTVSS .
99

Name the recorded % inhibition for VHH3.35 (VHH) VHH: QVQLQESGGGLVQAGGSLTLSCEVSGRTNDNYGVGWFRQVPGAERELVAAIRWSSISRYYKDSVKGRFTISRDNAKNTVYLQMDMLKAEDTAVYYCAADPAGWSEFGMEYWGKGTQVTVSS .
100

Name the recorded % inhibition for VHH3BE4 (VHH) VHH: QVQLQESGGGLVQAGGSLRLSCVASGRAFGNGAVGWFRQAPGREREFVATVSWNGGGTYYAESVRGRFTISRDNAKSTVYLQMNSLKPEDTAVYYCASAGEGTVVSEWDYDYDYWGQGTQVTVSS .
100

Name the recorded % inhibition for VHH3.149 (VHH) VHH: QVQLQESGGGLVQAGGSLKLSCAASGRTFSSYALGWFRQAPGTEREFVSAINWFGAPTYYADSVKGRFTISRDNAKNTVYLQMDNLKPEDTAVYYCAADSKGWDPQDMDYWGKGTQVTVSS .
98

Name the recorded % inhibition for VHH3.83 (VHH) VHH: QVQLQESGGGLVQPGDSLRLSCVLSGGVFTSYAMGWFRQAPGKEREFLAAITFNSDATYYADSVKGRFTISRDNAKNTAYLQMNSLKPNDTAVYSCAAGGNHYNPQYYHDYDKYDHWGQGTQVTVSS .
74
